- Tested on: RARa homodimer (NR concentration 270 nM)
- METHOD_NOTES: PBM binding z-score (relative to random genomic background probes); higher = stronger binding; sequences stand for … in GC…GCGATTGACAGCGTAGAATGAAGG
For each of the sequences below, state its PBM binding z-score.
Form rule: numeric answer, no unit written next to it.

Query (sequence): `TCGAGTAGGTAAGTCGGGGCATTCAGCCAACATA` ; field requested: PBM binding z-score -0.413

Would you mind doing `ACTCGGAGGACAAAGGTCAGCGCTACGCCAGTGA` as well? 1.94

Would you mind doing `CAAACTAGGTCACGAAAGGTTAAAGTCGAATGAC` as well? 1.18

Would you mind doing `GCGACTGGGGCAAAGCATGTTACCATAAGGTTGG` as well? -1.06

Would you mind doing `CCGAGTAGGTTATGGGGCATTCAAGCAACGGTGA` as well? -0.114

Would you mind doing `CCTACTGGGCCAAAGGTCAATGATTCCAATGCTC` as well? 1.53

Would you mind doing `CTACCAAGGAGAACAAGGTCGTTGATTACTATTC` as well? 0.421

Would you mind doing `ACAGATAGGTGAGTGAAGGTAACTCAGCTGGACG` as well? -0.566

Would you mind doing `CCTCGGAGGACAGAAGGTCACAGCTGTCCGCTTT` as well? 1.25

Would you mind doing `TCTATTAGTTGAAGAGCAACCGACGAGTCCGTTT` as well? 0.544

Would you mind doing `GGAACGAGGGCAATCGAGTTGATAGCATGGCGAT` as well? -0.463

Would you mind doing `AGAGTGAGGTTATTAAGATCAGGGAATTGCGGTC` as well? 1.44

Would you mind doing `TCTAGCAGGCCAGAGGGTCGCTCAAGAGGTACGG` as well? -1.48

Would you mind doing `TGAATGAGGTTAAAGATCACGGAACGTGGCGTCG` as well? 0.0716

Would you mind doing `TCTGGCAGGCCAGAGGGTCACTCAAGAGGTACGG` as well? -0.717

Would you mind doing `AGAACGAAGGCAATGAGTTGATAGCACGGGTGGC` as well? -0.881

Would you mind doing `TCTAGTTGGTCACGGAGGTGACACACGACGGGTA` as well? 0.338

Would you mind doing `TCTCGCAGGCCAGAGGGTCACTCAAGAGGTACGG` as well? -0.311

Would you mind doing `ACGAGTTGGTCAGCTGAGGTCACACACAATTCGG` as well? 0.588

Would you mind doing `TTACCAAGGTGAGGTGAGGTCGTTGATCCAACTC` as well? -0.25
